# Tested on: Escherichia coli TOP10
# MEASUREMENT_NOTES: shrunken log2 fold change of peptide-encoding DNA abundance (4.5 h post-induction vs induction); higher = less antimicrobial activity (less host growth inhibition)
# EXPERIMENTAL_SETUP: time post-induction: 4.5 h; library: site-saturation at positions 5, 18, 19, 20
Label rule met when shrunken log2 fold change is at or above -0.3; otherwise label rule not met.

[
  {
    "SEQUENCE_TEXT": "RRIRTRPPRLPRPRPRPFSYPRP",
    "ASSIGNED_CLASS": "rule met"
  },
  {
    "SEQUENCE_TEXT": "RRIRDRPPRLPRPRPRPCFMPRP",
    "ASSIGNED_CLASS": "rule met"
  },
  {
    "SEQUENCE_TEXT": "RRIRRRPPRLPRPRPRPIELPRP",
    "ASSIGNED_CLASS": "rule met"
  },
  {
    "SEQUENCE_TEXT": "RRIRSRPPRLPRPRPRPIQYPRP",
    "ASSIGNED_CLASS": "rule not met"
  },
  {
    "SEQUENCE_TEXT": "RRIRPRPPRLPRPRPRPRITPRP",
    "ASSIGNED_CLASS": "rule met"
  },
  {
    "SEQUENCE_TEXT": "RRIRTRPPRLPRPRPRPDSLPRP",
    "ASSIGNED_CLASS": "rule met"
  },
  {
    "SEQUENCE_TEXT": "RRIRARPPRLPRPRPRPYHHPRP",
    "ASSIGNED_CLASS": "rule not met"
  },
  {
    "SEQUENCE_TEXT": "RRIRSRPPRLPRPRPRPNKVPRP",
    "ASSIGNED_CLASS": "rule met"
  },
  {
    "SEQUENCE_TEXT": "RRIRNRPPRLPRPRPRPANDPRP",
    "ASSIGNED_CLASS": "rule not met"
  }
]

###

# Test system: Escherichia coli TOP10
# MEASUREMENT_NOTES: shrunken log2 fold change of peptide-encoding DNA abundance (4.5 h post-induction vs induction); higher = less antimicrobial activity (less host growth inhibition)
# EXPERIMENTAL_SETUP: time post-induction: 4.5 h; library: site-saturation at positions 5, 18, 19, 20
Label yes (1) when shrunken log2 fold change is at or above -0.1; otherwise label no (0).

[
  {
    "SEQUENCE_TEXT": "RRIRSRPPRLPRPRPRPCANPRP",
    "ASSIGNED_CLASS": "no (0)"
  },
  {
    "SEQUENCE_TEXT": "RRIRTRPPRLPRPRPRPTFYPRP",
    "ASSIGNED_CLASS": "yes (1)"
  },
  {
    "SEQUENCE_TEXT": "RRIRLRPPRLPRPRPRPKRRPRP",
    "ASSIGNED_CLASS": "no (0)"
  },
  {
    "SEQUENCE_TEXT": "RRIRMRPPRLPRPRPRPLENPRP",
    "ASSIGNED_CLASS": "yes (1)"
  },
  {
    "SEQUENCE_TEXT": "RRIRVRPPRLPRPRPRPDKYPRP",
    "ASSIGNED_CLASS": "no (0)"
  },
  {
    "SEQUENCE_TEXT": "RRIRQRPPRLPRPRPRPFNFPRP",
    "ASSIGNED_CLASS": "no (0)"
  },
  {
    "SEQUENCE_TEXT": "RRIRQRPPRLPRPRPRPHWRPRP",
    "ASSIGNED_CLASS": "no (0)"
  },
  {
    "SEQUENCE_TEXT": "RRIRNRPPRLPRPRPRPYMFPRP",
    "ASSIGNED_CLASS": "no (0)"
  },
  {
    "SEQUENCE_TEXT": "RRIRIRPPRLPRPRPRPINMPRP",
    "ASSIGNED_CLASS": "no (0)"
  },
  {
    "SEQUENCE_TEXT": "RRIRKRPPRLPRPRPRPMQTPRP",
    "ASSIGNED_CLASS": "yes (1)"
  },
  {
    "SEQUENCE_TEXT": "RRIRKRPPRLPRPRPRPAIVPRP",
    "ASSIGNED_CLASS": "yes (1)"
  }
]

###

# Tested on: Escherichia coli TOP10;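 note: peptides expressed intracellularly from a pBAD plasmid library in pooled LB shake-flask culture, induced with 0.3% L-arabinose, DNA abundance read by NGS, three biological replicates, DESeq2 with apeglm shrinkage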
# MEASUREMENT_NOTES: shrunken log2 fold change of peptide-encoding DNA abundance (4.5 h post-induction vs induction); higher = less antimicrobial activity (less host growth inhibition)
# EXPERIMENTAL_SETUP: time post-induction: 4.5 h; library: site-saturation at positions 5, 18, 19, 20
Label Met when shrunken log2 fold change is at or above -0.2; otherwise label Not met.

[
  {
    "SEQUENCE_TEXT": "RRIRIRPPRLPRPRPRPRCHPRP",
    "ASSIGNED_CLASS": "Not met"
  },
  {
    "SEQUENCE_TEXT": "RRIRTRPPRLPRPRPRPGRKPRP",
    "ASSIGNED_CLASS": "Met"
  },
  {
    "SEQUENCE_TEXT": "RRIRKRPPRLPRPRPRPQMTPRP",
    "ASSIGNED_CLASS": "Met"
  },
  {
    "SEQUENCE_TEXT": "RRIRYRPPRLPRPRPRPAVDPRP",
    "ASSIGNED_CLASS": "Met"
  },
  {
    "SEQUENCE_TEXT": "RRIRGRPPRLPRPRPRPAMDPRP",
    "ASSIGNED_CLASS": "Met"
  },
  {
    "SEQUENCE_TEXT": "RRIRDRPPRLPRPRPRPFMCPRP",
    "ASSIGNED_CLASS": "Met"
  },
  {
    "SEQUENCE_TEXT": "RRIRMRPPRLPRPRPRPNLHPRP",
    "ASSIGNED_CLASS": "Met"
  },
  {
    "SEQUENCE_TEXT": "RRIRQRPPRLPRPRPRPIYMPRP",
    "ASSIGNED_CLASS": "Met"
  },
  {
    "SEQUENCE_TEXT": "RRIRPRPPRLPRPRPRPIIPPRP",
    "ASSIGNED_CLASS": "Not met"
  },
  {
    "SEQUENCE_TEXT": "RRIRIRPPRLPRPRPRPEDQPRP",
    "ASSIGNED_CLASS": "Met"
  },
  {
    "SEQUENCE_TEXT": "RRIRFRPPRLPRPRPRPHCMPRP",
    "ASSIGNED_CLASS": "Not met"
  },
  {
    "SEQUENCE_TEXT": "RRIRFRPPRLPRPRPRPLMWPRP",
    "ASSIGNED_CLASS": "Met"
  },
  {
    "SEQUENCE_TEXT": "RRIRERPPRLPRPRPRPYLKPRP",
    "ASSIGNED_CLASS": "Met"
  },
  {
    "SEQUENCE_TEXT": "RRIRCRPPRLPRPRPRPFSPPRP",
    "ASSIGNED_CLASS": "Met"
  },
  {
    "SEQUENCE_TEXT": "RRIRTRPPRLPRPRPRPYWAPRP",
    "ASSIGNED_CLASS": "Met"
  },
  {
    "SEQUENCE_TEXT": "RRIRTRPPRLPRPRPRPDSHPRP",
    "ASSIGNED_CLASS": "Met"
  },
  {
    "SEQUENCE_TEXT": "RRIRSRPPRLPRPRPRPHWYPRP",
    "ASSIGNED_CLASS": "Not met"
  },
  {
    "SEQUENCE_TEXT": "RRIRARPPRLPRPRPRPHSQPRP",
    "ASSIGNED_CLASS": "Met"
  },
  {
    "SEQUENCE_TEXT": "RRIRVRPPRLPRPRPRPETMPRP",
    "ASSIGNED_CLASS": "Met"
  },
  {
    "SEQUENCE_TEXT": "RRIRHRPPRLPRPRPRPLKMPRP",
    "ASSIGNED_CLASS": "Met"
  },
  {
    "SEQUENCE_TEXT": "RRIRNRPPRLPRPRPRPLSQPRP",
    "ASSIGNED_CLASS": "Met"
  },
  {
    "SEQUENCE_TEXT": "RRIRQRPPRLPRPRPRPIAIPRP",
    "ASSIGNED_CLASS": "Met"
  },
  {
    "SEQUENCE_TEXT": "RRIRHRPPRLPRPRPRPSPYPRP",
    "ASSIGNED_CLASS": "Not met"
  },
  {
    "SEQUENCE_TEXT": "RRIRTRPPRLPRPRPRPYVGPRP",
    "ASSIGNED_CLASS": "Not met"
  },
  {
    "SEQUENCE_TEXT": "RRIRSRPPRLPRPRPRPYGCPRP",
    "ASSIGNED_CLASS": "Not met"
  },
  {
    "SEQUENCE_TEXT": "RRIRFRPPRLPRPRPRPQPPPRP",
    "ASSIGNED_CLASS": "Met"
  },
  {
    "SEQUENCE_TEXT": "RRIRQRPPRLPRPRPRPMTEPRP",
    "ASSIGNED_CLASS": "Met"
  },
  {
    "SEQUENCE_TEXT": "RRIRKRPPRLPRPRPRPAKTPRP",
    "ASSIGNED_CLASS": "Met"
  },
  {
    "SEQUENCE_TEXT": "RRIRDRPPRLPRPRPRPVNCPRP",
    "ASSIGNED_CLASS": "Not met"
  },
  {
    "SEQUENCE_TEXT": "RRIRKRPPRLPRPRPRPDETPRP",
    "ASSIGNED_CLASS": "Met"
  },
  {
    "SEQUENCE_TEXT": "RRIRERPPRLPRPRPRPCDIPRP",
    "ASSIGNED_CLASS": "Not met"
  },
  {
    "SEQUENCE_TEXT": "RRIRIRPPRLPRPRPRPPEGPRP",
    "ASSIGNED_CLASS": "Met"
  },
  {
    "SEQUENCE_TEXT": "RRIRLRPPRLPRPRPRPKYMPRP",
    "ASSIGNED_CLASS": "Not met"
  },
  {
    "SEQUENCE_TEXT": "RRIRDRPPRLPRPRPRPYVNPRP",
    "ASSIGNED_CLASS": "Not met"
  },
  {
    "SEQUENCE_TEXT": "RRIRHRPPRLPRPRPRPWNGPRP",
    "ASSIGNED_CLASS": "Not met"
  },
  {
    "SEQUENCE_TEXT": "RRIRPRPPRLPRPRPRPIVNPRP",
    "ASSIGNED_CLASS": "Met"
  },
  {
    "SEQUENCE_TEXT": "RRIRYRPPRLPRPRPRPEYKPRP",
    "ASSIGNED_CLASS": "Not met"
  },
  {
    "SEQUENCE_TEXT": "RRIRCRPPRLPRPRPRPQEKPRP",
    "ASSIGNED_CLASS": "Met"
  },
  {
    "SEQUENCE_TEXT": "RRIRQRPPRLPRPRPRPHCCPRP",
    "ASSIGNED_CLASS": "Met"
  },
  {
    "SEQUENCE_TEXT": "RRIRCRPPRLPRPRPRPEMRPRP",
    "ASSIGNED_CLASS": "Met"
  },
  {
    "SEQUENCE_TEXT": "RRIRVRPPRLPRPRPRPKVIPRP",
    "ASSIGNED_CLASS": "Not met"
  },
  {
    "SEQUENCE_TEXT": "RRIRYRPPRLPRPRPRPQFYPRP",
    "ASSIGNED_CLASS": "Not met"
  },
  {
    "SEQUENCE_TEXT": "RRIRARPPRLPRPRPRPDETPRP",
    "ASSIGNED_CLASS": "Met"
  }
]
